Data origin: paper PMC5233613

So I've got a bunch of binders here, and I need their pKd values.
measured on: LC3B R10A (human, UniProt Q9GZQ8 1-120, R10A)
test details: ITC; MicroCal iTC200, 25 °C; proteins 0.25 mmol/L and peptides 3 mmol/L, dialyzed against buffer B (20 mmol/L Tris-HCl, 200 mmol/L NaCl, 1 mmol/L EDTA, pH 8.0); single binding site model
protocol conditions: both partners purified
Non-standard residues stand in square brackets, D forms with d. No end group written: not given here. pS = N[C@@H](COP(=O)(O)O)C(=O)O
Please keep in mind that pKd is minus log10 of the molar concentration; only the number is needed.

Query block: So what does the record say about pKd for DYESDDDSYEVLDLTE (FUNDC1 (Fun14 domain-containing protein 1), LIR and flanking residues 10-25; also called unphosphorylated FUNDC1 peptide; FUNDC1 peptide; source: synthetic peptide (GL Biochem, Shanghai)) [FUNDC1 LIR peptide 10-25, unphosphorylated] ?
Result block: 4.94

Query block: Returns the measured pKd for the input binder. Input: DYE[pS]DDDSYEVLDLTE (also called FUNDC1 pS13; pS13 peptide; source: synthetic peptide (GL Biochem, Shanghai)) [FUNDC1 LIR peptide 10-25 phosphorylated at Ser13]
Result block: 4.55
